biological target: T1, human IgE with the M1′ sequence (long form of membrane IgE) expressed on transduced BJAB or Daudi cells (human, UniProt P01854 116-546); assay: competitive ECL binding on BJAB-IgE/M1′ cells vs biotinylated 26A11 or 47H4, 2nd IC50 column
T1 construct: Full-length heavy and light chains of the U266 IgE B cell receptor, retrovirally expressed; also called IgE/M1′; IgE-M1′
T1 sequence (P01854 116-546 I515L limits assumed): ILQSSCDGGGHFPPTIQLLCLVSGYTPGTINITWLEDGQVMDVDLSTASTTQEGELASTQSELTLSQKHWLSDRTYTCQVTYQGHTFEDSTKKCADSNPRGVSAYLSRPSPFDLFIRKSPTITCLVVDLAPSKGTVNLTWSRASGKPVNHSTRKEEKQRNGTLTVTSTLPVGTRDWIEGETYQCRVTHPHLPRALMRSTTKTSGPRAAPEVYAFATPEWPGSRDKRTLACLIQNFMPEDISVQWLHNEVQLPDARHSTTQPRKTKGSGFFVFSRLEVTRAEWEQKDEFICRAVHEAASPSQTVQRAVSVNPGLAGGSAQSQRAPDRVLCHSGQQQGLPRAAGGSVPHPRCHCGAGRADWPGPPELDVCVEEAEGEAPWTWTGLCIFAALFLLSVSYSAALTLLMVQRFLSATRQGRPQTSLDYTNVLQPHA
Field: IC50. Provide a value for each of the binders that follow.
Your reply should be a number followed by the unit it is expressed in.

INSERT INTO measurements (binder, observed_measurement) VALUES
  ('humanized anti-IgE/M1′ antibody 47H4.v1 (antibody, V domains shown, direct CDR graft, produced as IgG) VH: EVQLVESGGGLVQPGGSLRLSCAASGFTFSDYGMAWVRQAPGKGLEWVAFISDLAYTIYYADTVTGRFTISRDNSKNTLYLQMNSLRAEDTAVYYCARDNWDAMDYWGQGTLVTVSS VL: DIQMTQSPSSLSASVGDRVTITCRSSQSLVHNNGNTYLHWYQQKPGKAPKLLIYKVSNRFSGVPSRFSGSGSGTDFTLTISSLQPEDFATYYCSQNTLVPWTFGQGTKVEIKR', '18 nM');

Each binder below has a reported value. Please supply its IC50.
1. humanized anti-IgE/M1′ antibody 26A11.v3 (antibody, V domains shown, produced as IgG) VH: EVQLVESGGGLVQPGGSLRLSCAASGYTFTDYYMMWVRQAPGKGLEWVGDINPNNYDTSYNQKFKGRFTISADTSKNTAYLQMNSLRAEDTAVYYCASKAYWGQGTLVTVSS VL: DIQMTQSPSSLSASVGDRVTITCRSSQDISNYLNWYQQKPGKAPKLLIYSTSRLHSGVPSRFSGSGSGTDFTLTISSLQPEDFATYYCQQGHTLPWTFGQGTKVEIKR
2. humanized anti-IgE/M1′ antibody 26A11.v5 (antibody, V domains shown, produced as IgG) VH: EVQLVESGGGLVQPGGSLRLSCAASGYTFTDYYIMWVRQAPGKGLEWVGDINPNNYDTSYNQKFKGRFTISADTSKNTAYLQMNSLRAEDTAVYYCASKAYWGQGTLVTVSS VL: DIQMTQSPSSLSASVGDRVTITCRSSQDISNALNWYQQKPGKAPKLLIYSTSRLHSGVPSRFSGSGSGTDFTLTISSLQPEDFATYYCQQGHTLPWTFGQGTKVEIKR

Result:
1: 22 nM; 2: 35 nM
